A compilation of pIC50 values for Apoptosis regulator Bcl-2 (Homo sapiens, UniProt P10415) from the published literature.
pIC50 here: minus log base 10 of the concentration, concentration in moles per litre.

Response field pIC50 (Apoptosis regulator Bcl-2 (Homo sapiens, UniProt P10415)) for item Clc1cccc(Nc2nnc(-c3c[nH]c4ccccc34)o2)c1 : 6.18

Simply: CC1(C)CCC(CN2CCN(c3ccc(C(=O)NS(=O)(=O)c4ccc(NCCCCCCCC(=O)NO)c([N+](=O)[O-])c4)c(Oc4cnc5[nH]ccc5c4)c3)CC2)=C(c2ccc(Cl)cc2)C1 , Apoptosis regulator Bcl-2 (Homo sapiens, UniProt P10415), pIC50 = 6.60

Observed pIC50, Apoptosis regulator Bcl-2 (Homo sapiens, UniProt P10415), COc1ccc(Sc2ccc3c4c(cccc24)C(=O)C(C#N)=C3C#N)cc1 : 5.21

Record CC1(C)CCC(CN2CCN(c3ccc(C(=O)NS(=O)(=O)c4ccc(NCC5CCOCC5)c([N+](=O)[O-])c4)c(Oc4cnc5[nH]ccc5c4)c3)CC2)=C(c2ccc(C(F)(F)F)cc2)C1 has Apoptosis regulator Bcl-2 (Homo sapiens, UniProt P10415) pIC50 equal to 8.82

pIC50 for Apoptosis regulator Bcl-2 (Homo sapiens, UniProt P10415) with input COc1ccc(C2C3=C(N=c4s/c(=C\c5ccc(-c6cccc(C(=O)O)c6)o5)c(=O)n42)c2ccccc2CC3)cc1 (configuration not stated) equals 5.10

Bench note, Apoptosis regulator Bcl-2 (Homo sapiens, UniProt P10415): entry O=C(CCCCC(=O)NCCN1C(=O)c2cccc3c(Sc4ccc(Br)cc4)ccc(c23)C1=O)NCCOCCOCCNc1cccc2c1C(=O)N(C1CCC(=O)NC1=O)C2=O (configuration not stated) , its pIC50 = 5.31

CC1(C)CCC(CN2CCN(c3ccc(C(=O)NS(=O)(=O)c4ccc(NCCCCCC(=O)NO)c([N+](=O)[O-])c4)c(Oc4cnc5[nH]ccc5c4)c3)CC2)=C(c2ccc(Cl)cc2)C1 on Apoptosis regulator Bcl-2 (Homo sapiens, UniProt P10415) gives pIC50 = 6.64
